Listed here: compounds with reported pIC50 for ROCK2 (Homo sapiens (Human)).
Give bare numbers, as −log10 of the molar value.

The examples below pair each entry with its known result.
{"COMPOUND": "NC(=O)c1cccnc1O[C@H]1C[C@]2(C1)C[C@H](N1C(=O)NC(CC3CCCC3)C1=O)C2 (single isomer, unassigned) [Example 52]", "READOUT NAME": "pIC50", "OBSERVED RESULT": 6.80}
{"COMPOUND": "NC(=O)c1cccnc1O[C@H]1C[C@]2(C1)C[C@H](N1C(=O)NC(Cc3ccncc3)C1=O)C2 (some centres unmarked)", "READOUT NAME": "pIC50", "OBSERVED RESULT": 5.64}

Respectfully, I request pIC50 for each entry included below.
1. C/C(=C\c1ccccc1)CC1NC(=O)N([C@H]2C[C@@]3(C[C@H](Oc4ncccc4C(N)=O)C3)C2)C1=O (some centres unmarked)
2. NC(=O)c1cccnc1O[C@H]1C[C@]2(C1)C[C@H](N1C(=O)NC(CCOC(F)(F)F)C1=O)C2 (single isomer, unassigned)
3. CCC[C@@H]1NC(=O)N([C@H]2C[C@@]3(C[C@H](Oc4ncccc4C(N)=O)C3)C2)C1=O (some centres unmarked)

1: 7.68; 2: 6.52; 3: 6.91

Record pIC50 per entry; entries follow.
1. CSCC[C@@H]1NC(=O)N([C@H]2C[C@@]3(C[C@H](Oc4ncccc4C(N)=O)C3)C2)C1=O (some centres unmarked)
2. C[C@@H](C[C@@H]1NC(=O)N([C@H]2C[C@@]3(C[C@H](Oc4ncccc4C(N)=O)C3)C2)C1=O)C(F)(F)F (some centres unmarked)
3. NC(=O)c1cccnc1O[C@H]1C[C@]2(C1)C[C@H](N1C(=O)NC(CC(C(F)(F)F)C(F)(F)F)C1=O)C2 (single isomer, unassigned) [Example 56]
4. NC(=O)c1cccnc1O[C@H]1C[C@]2(C1)C[C@H](N1C(=O)NC(CC(C(F)(F)F)C(F)(F)F)C1=O)C2 (single isomer, unassigned) [Example 47]
5. NC(=O)c1cccnc1O[C@H]1C[C@]2(C1)C[C@H](N1C(=O)C3CCCN3C1=O)C2 (some centres unmarked)
6. NC(=O)c1cccnc1O[C@H]1CC2(C1)C[C@H](N1C(=O)N[C@@H](CC3CCC(NC(=O)OCc4ccccc4)CC3)C1=O)C2 (some centres unmarked)

[7.05, 8.05, 6.59, 7.30, 5.69, 7.55]

I need pIC50 for every entry listed below, if you could help.
1. [H][C@]1(Oc2ncccc2C(N)=O)C[C@@]2(C[C@H](N3C(=O)C[C@H](CCc4ccccc4)NC3=O)C2)C1 (some centres unmarked)
2. NC(=O)c1cccnc1OC1CC2(C1)CC(N1C(=O)CN(c3ccccc3OC(F)F)C1=O)C2 (centres unmarked)
3. CC(C)(C)OCC1NC(=O)N([C@H]2C[C@@]3(C[C@H](Oc4ncccc4C(N)=O)C3)C2)C1=O (some centres unmarked)

1: 7.12; 2: 8.52; 3: 6.66

---

Reported pIC50, ROCK2 (Homo sapiens (Human), UniProt O75116).
Give bare numbers, as −log10 of the molar value.

Examples with answers:
{"COMPOUND": "NC(=O)c1cccnc1O[C@H]1C[C@]2(C1)C[C@H](N1C(=O)NC(CC3CCN(C(=O)OCc4ccccc4)CC3)C1=O)C2 (stereo partly drawn)", "pIC50": 7.28}
{"COMPOUND": "[H][C@]1(Oc2ncccc2C(N)=O)C[C@]2(C[C@@H](N3C(=O)N[C@@H](Cc4ccccc4)C3=O)C2)C1 (stereo partly drawn)", "pIC50": 6.71}
{"COMPOUND": "CCCC[C@@H]1NC(=O)N([C@H]2C[C@@]3(C[C@H](Oc4ncccc4C(N)=O)C3)C2)C1=O (stereo partly drawn)", "pIC50": 7.24}

Hi team, please reply with pIC50 for each item in this list.
1. NC(=O)c1cccnc1O[C@H]1C[C@]2(C1)C[C@H](N1C(=O)NC(CC3CCN(C(=O)c4ccccc4)CC3)C1=O)C2 (stereo partly drawn)
2. NC(=O)c1cccnc1O[C@H]1C[C@]2(C1)C[C@H](N1C(=O)NC(CCc3ccccc3)C1=O)C2 (single isomer, unassigned) [Example 12]
3. NC(=O)c1cccnc1O[C@H]1C[C@]2(C1)C[C@H](N1C(=O)CN(CCc3ccccc3)C1=O)C2 (stereo partly drawn)

1: 6.84; 2: 6.57; 3: 6.65
